# credit: ChEMBL document CHEMBL1201862

- Tested on: HOP-62
- Assay protocol: NCI tumour cell line growth inhibition, 48 h
Active and inactive are the calls of the source. Cut-off read from the data, not from the text of the source: active = GI50 up to about 1.1 µM and inactive = higher.
Below, each of the molecules is paired with its reported GI50 value.

QUERY: Given "Cc1ccc(C(=O)N/N=C(\N=N\c2ccccc2)c2ccc(N(CCC#N)CCC#N)cc2C)cc1" , state its recorded GI50.
RESULT: 23.1 µM (inactive)

QUERY: Given "Cn1cnc([N+](=O)[O-])c1Sc1nc(N)nc2c1ncn2[C@H]1C[C@H](O)[C@@H](CO)O1" , state its recorded GI50.
RESULT: 0.971 µM (active)

QUERY: Given "CC1(C)N=C(/C=N/O)C(C)(C)N1O" , state its recorded GI50.
RESULT: > 100 µM (inactive)

QUERY: Given "Cc1cc2nc(O)c(CCC(=O)O)nc2cc1C" , state its recorded GI50.
RESULT: > 100 µM (inactive)

QUERY: Given "CC(C)(C)/N=C/N1C=Cc2nc3ccccc3cc2C1" , state its recorded GI50.
RESULT: > 100 µM (inactive)

QUERY: Given C1CN(P2(N3CC3)=NP(N3CC3)(N3CC3)=NP(N3CC3)(N3CC3)=N2)CCO1 (stereo unspecified) [FOTRETAMINE] , state its recorded GI50.
RESULT: 26.6 µM (inactive)

---
QUERY: Given "CC1=NN(c2cccc(Cl)c2)C(=N/c2nc3ccccc3s2)/C1=C\c1cccs1" , state its recorded GI50.
RESULT: 19.5 µM (inactive)

QUERY: Given "O=C(NNC(=O)c1ccncc1)c1ccncc1" , state its recorded GI50.
RESULT: > 100 µM (inactive)
